B1: TPR t1 (parent)
chain: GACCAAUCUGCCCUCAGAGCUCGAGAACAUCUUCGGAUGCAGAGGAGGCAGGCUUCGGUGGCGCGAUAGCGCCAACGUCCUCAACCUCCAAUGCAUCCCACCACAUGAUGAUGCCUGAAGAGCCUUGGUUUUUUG

Variants of: B1
EXPERIMENT_SUMMARY: polymerase ribozyme fitness, log enrichment relative to wild type (log ratio); higher = more active; in vitro selection for triplet polymerase activity
Classification field. Basis: polymerase ribozyme fitness (log ratio). Definitions: lower segment (below -3), middle segment (-3 to below -0.6), upper segment (-0.6 or more)

Lab note: sort C11U A37C G45U G58A into the matching polymerase ribozyme fitness (log ratio) band. middle segment

Category of G42A C85G C86G U129C , please. lower segment

Field: class (polymerase ribozyme fitness (log ratio)) — entry: C62U G135U upper segment

For the record C11A U21A C40U G47A C49A G57A G58C G61U , report the class its polymerase ribozyme fitness (log ratio) corresponds to. lower segment

Exercise: read the entry A83U and state which class it falls under. upper segment

Assign a category based on measured polymerase ribozyme fitness (log ratio) for C15U G93A and give only the class name. middle segment

Returns: class label. Input: C11U G120U G122U upper segment

Classify this variant: C49U A95G middle segment

Bin? G61U A105U middle segment

Lab note: sort A2C A37U C56G G69A U78G G120U into the matching polymerase ribozyme fitness (log ratio) band. lower segment

Which bin should I file C72A U78C under? upper segment
